Biological target: T1, CXCL12 (CXC Ligand 12) (UniProt O62657 22-89)
T1 construct: mature; Untagged in BLI and NMR; CXCL12-His6 was used at 1 µM on the HMGB1 SPOT peptide arrays; also called CXCL12A-c021, wt 1-67, no tag; CXCL12-His6
T1 sequence (P48061 22-89): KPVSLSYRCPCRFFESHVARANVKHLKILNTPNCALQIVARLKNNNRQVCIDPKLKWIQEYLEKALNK
Test: BLI, biotinylated HMGB1 construct on streptavidin sensor, CXCL12 0-150 µM in solution; kinetics rates derived from interferogram
Method: Pre-hydrated streptavidin Octet Biosensors (FortéBio 18-5019) were coated with 4 μM solutions of biotinylated HMGB1 proteins in 10 mM HEPES, pH 7.5, 150 mM NaCl (Base buffer-BB) plus, 0.5 mM TCEP (60″ baseline, 60″ binding). Nonspecific binding was minimized by incubation for 3′ in BB+1% BSA+0.05% Tween-20 (Kinetics Buffer, KB) prior to kinetics assays. […] An OctetRed 384 instrument was used for these experiments. Kinetics data were extracted with DataAnalysis 9.0 (FortéBio). […]
Assign Kd to each entry below.
Give bare numbers, in µM.

Worked examples follow.
FR-HMGB1 Box A 8-78 (helical-only) (ligand, biotinylated in BLI, also called minimal Box A 8-78; c027; not shown: biotinylation tag (BLI) or His6 tag (reverse peptide array)) PRGKMSSYAFFVQTCREEHKKKHPDASVNFSEFSKKCSERWKTMSAKEKGKFEDMAKADKARYEREMKTYI ... 18.7
FR-HMGB1 Box A 1-88 (full HMG Box with flanking regions) (ligand, biotinylated in BLI, also called extended box A 1-88; c037; not shown: biotinylation tag) GKGDPKKPRGKMSSYAFFVQTCREEHKKKHPDASVNFSEFSKKCSERWKTMSAKEKGKFEDMAKADKARYEREMKTYIPPKGETKKKF ... 6.1
FR-HMGB1 Box B 89-174 (full HMG Box with flanking regions) (ligand, biotinylated in BLI and NMR, also called complete Box B; not shown: C-terminal biotinylation tag) SMKDPNAPKRPPSAFFLFCSEYRPKIKGEHPGLSIGDVAKKLGEMWNNTAADDKQPYEKKAAKLKEKYEKDIAAYRAKGKPDAAKKGV ... 7.1
non-oxidizable 3S-HMGB1, full-length (1-214) (ligand, Biotinylated (c022) in BLI with CXCL12, His6-tagged in the reverse peptide array; also called 3S-FL HMGB1 (c022)) GKGDPKKPRGKMSSYAFFVQTSREEHKKKHPDASVNFSEFSKKSSERWKTMSAKEKGKFEDMAKADKARYEREMKTYIPPKGETKKKFKDPNAPKRPPSAFFLFSSEYRPKIKGEHPGLSIGDVAKKLGEMWNNTAADDKQPYEKKAAKLKEKYEKDIAAYRAKGKPDAAKKGVVKAEKSKKKKEEEEDEEDEEDEEEEEDEEDEDEEEDDDDE ... 11.7

Please report Kd for every entry that follows.
1. FR-HMGB1 Box B 94-162 (helical-only) (ligand, also: biotin or His6 tag in some assays, sequence not given here, also called HMGB1A-c028; not shown: C-terminal Avi / biotinylation tag (BLI, NMR) or His6 tag (reverse peptide array)) PKRPPSAFFLFCSEYRPKIKGEHPGLSIGDVAKKLGEMWNNTAADDKQPYEKKAAKLKEKYEKDIAAYR
2. fully-reduced HMGB1, full-length (1-214) (ligand, cysteines reduced (Cys 22, Cys 44, Cys 105), Tags differ by assay: biotinylated (c011) in BLI with CXCL12, His6-tagged in the reverse peptide array, TEV-cleaved in the RAGE ELISA and BLI; also called FR-HMGB1; FR FL-HMGB1 (c011)) GKGDPKKPRGKMSSYAFFVQTCREEHKKKHPDASVNFSEFSKKCSERWKTMSAKEKGKFEDMAKADKARYEREMKTYIPPKGETKKKFKDPNAPKRPPSAFFLFCSEYRPKIKGEHPGLSIGDVAKKLGEMWNNTAADDKQPYEKKAAKLKEKYEKDIAAYRAKGKPDAAKKGVVKAEKSKKKKEEEEDEEDEEDEEEEEDEEDEDEEEDDDDE

A)
1. 39
2. 20.9
